All figures here come from patent US9815796B2.

- TGT: Rhesus PDE2A3 (Macaca mulatta, UniProt B3VTJ2)
- Sequence (B3VTJ2 1-941): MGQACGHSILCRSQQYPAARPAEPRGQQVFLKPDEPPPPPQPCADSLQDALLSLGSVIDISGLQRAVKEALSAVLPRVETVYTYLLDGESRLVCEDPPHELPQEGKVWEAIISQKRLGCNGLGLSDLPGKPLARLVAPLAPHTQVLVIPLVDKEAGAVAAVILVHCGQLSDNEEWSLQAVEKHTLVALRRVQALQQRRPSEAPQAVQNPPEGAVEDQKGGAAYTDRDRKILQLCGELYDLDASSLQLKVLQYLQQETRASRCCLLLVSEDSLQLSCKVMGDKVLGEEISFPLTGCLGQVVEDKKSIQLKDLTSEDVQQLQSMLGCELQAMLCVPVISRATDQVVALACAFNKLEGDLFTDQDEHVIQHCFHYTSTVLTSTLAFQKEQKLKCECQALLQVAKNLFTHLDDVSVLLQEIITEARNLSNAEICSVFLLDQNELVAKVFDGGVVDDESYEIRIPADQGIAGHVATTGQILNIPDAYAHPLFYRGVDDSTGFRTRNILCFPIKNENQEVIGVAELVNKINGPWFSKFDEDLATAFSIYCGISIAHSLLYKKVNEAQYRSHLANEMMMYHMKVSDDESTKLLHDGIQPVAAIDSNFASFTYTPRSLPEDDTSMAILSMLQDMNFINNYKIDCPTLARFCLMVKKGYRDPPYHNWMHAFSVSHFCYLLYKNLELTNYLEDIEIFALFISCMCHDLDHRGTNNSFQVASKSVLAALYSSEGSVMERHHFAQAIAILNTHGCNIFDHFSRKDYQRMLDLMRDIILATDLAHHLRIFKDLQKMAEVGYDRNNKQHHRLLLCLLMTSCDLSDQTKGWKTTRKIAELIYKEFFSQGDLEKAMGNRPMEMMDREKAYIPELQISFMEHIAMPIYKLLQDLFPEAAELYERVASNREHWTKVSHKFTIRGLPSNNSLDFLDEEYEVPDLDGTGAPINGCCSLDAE
- EXPERIMENT: PDE2 fluorescence polarization (IMAP FP) inhibition assay, rhesus enzyme
- Assay type: biochemical, rhesus macaque
- CONDITIONS_USED: Rhesus PDE2, Lab A; read-out: Rhesus PDE2 Ki (nM) - Lab A
QUANTITY_MEASURED: Ki (nM)

Reference set (10 entries):
C[C@@H](NC(=O)c1cc(=O)[nH]c(-c2ncccn2)n1)c1ccc(C(F)(F)F)cc1F : 58
CC(NC(=O)c1cc(=O)[nH]c(C2CC2)n1)c1ccccc1C(F)(F)F (stereo not shown) : 10700
CC(C)(NC(=O)c1cc(=O)[nH]c(C2CC2)n1)c1ccc(SC(F)(F)F)c(F)c1 : 86
Cc1nc(C(=O)NC(C)c2ccc(C(C)(C)C)cc2)cc(=O)[nH]1 (single isomer, unassigned) [Example 310] : 5650
CC[C@@H](NC(=O)c1cc(=O)[nH]c(C2CC2)n1)c1ccc(S(F)(F)(F)(F)F)cc1 : 5
CC(C)(NC(=O)c1cc(=O)[nH]c(-c2ncccn2)n1)c1ccc(C(F)(F)F)cc1 : 152
C[C@@H](NC(=O)c1cc(=O)[nH]c(-c2ncccn2)n1)c1ccc(C(F)(F)F)c2ccccc12 : 5120
CCc1nc(C(=O)N[C@@H](C)c2ccc(C(F)(F)F)cc2)cc(=O)[nH]1 : 1650
C[C@@H](NC(=O)c1cc(=O)[nH]c(Cc2ccccc2)n1)c1ccc(C(F)(F)F)cc1 : 21
Cc1nc(C(=O)N[C@@H](c2ccc(SC(F)(F)F)cc2)C(C)C)cc(=O)[nH]1 : 3.2

A = C[C@@H](NC(=O)c1cc(=O)[nH]c(-c2ccccc2)n1)c1ccc(CN(C)C)cc1
B = C[C@@H](NC(=O)c1cc(=O)[nH]c(-c2ccccc2)n1)c1cccc(C(F)(F)F)c1
[ask] Return label of the item with the larger Ki. Candidates: A , B . Bench note: the answer is the label of the chosen record.
[reply] A

1 = CC(NC(=O)c1cc(=O)[nH]c(-c2ncccn2)n1)c1ccc(C2CC2)cc1 (stereo not shown)
2 = Cc1nc(C(=O)NC(C)c2ccc(C(F)(F)F)cc2C)cc(=O)[nH]1 (stereo not shown)
[ask] Hey, between 1 and 2 which has a smaller measured Ki? Select an item and report its label.
[reply] 1

I = Cc1cc([C@@H](C)NC(=O)c2cc(=O)[nH]c(C3CC3)n2)ccc1C(F)(F)F
II = C[C@@H](NC(=O)c1cc(=O)[nH]c(-c2ccccc2)n1)c1ccc(C(F)(F)F)c(F)c1
[ask] Quick check, higher Ki between I and II ? In your reply, give the label of the chosen option.
[reply] I
(I: 39 nM, II: 5.2 nM)

----------
- TGT: human PDE2A1 (Homo sapiens (Human), UniProt O00408)
- Sequence (O00408 other isoform, or with tags, fused parts or gaps): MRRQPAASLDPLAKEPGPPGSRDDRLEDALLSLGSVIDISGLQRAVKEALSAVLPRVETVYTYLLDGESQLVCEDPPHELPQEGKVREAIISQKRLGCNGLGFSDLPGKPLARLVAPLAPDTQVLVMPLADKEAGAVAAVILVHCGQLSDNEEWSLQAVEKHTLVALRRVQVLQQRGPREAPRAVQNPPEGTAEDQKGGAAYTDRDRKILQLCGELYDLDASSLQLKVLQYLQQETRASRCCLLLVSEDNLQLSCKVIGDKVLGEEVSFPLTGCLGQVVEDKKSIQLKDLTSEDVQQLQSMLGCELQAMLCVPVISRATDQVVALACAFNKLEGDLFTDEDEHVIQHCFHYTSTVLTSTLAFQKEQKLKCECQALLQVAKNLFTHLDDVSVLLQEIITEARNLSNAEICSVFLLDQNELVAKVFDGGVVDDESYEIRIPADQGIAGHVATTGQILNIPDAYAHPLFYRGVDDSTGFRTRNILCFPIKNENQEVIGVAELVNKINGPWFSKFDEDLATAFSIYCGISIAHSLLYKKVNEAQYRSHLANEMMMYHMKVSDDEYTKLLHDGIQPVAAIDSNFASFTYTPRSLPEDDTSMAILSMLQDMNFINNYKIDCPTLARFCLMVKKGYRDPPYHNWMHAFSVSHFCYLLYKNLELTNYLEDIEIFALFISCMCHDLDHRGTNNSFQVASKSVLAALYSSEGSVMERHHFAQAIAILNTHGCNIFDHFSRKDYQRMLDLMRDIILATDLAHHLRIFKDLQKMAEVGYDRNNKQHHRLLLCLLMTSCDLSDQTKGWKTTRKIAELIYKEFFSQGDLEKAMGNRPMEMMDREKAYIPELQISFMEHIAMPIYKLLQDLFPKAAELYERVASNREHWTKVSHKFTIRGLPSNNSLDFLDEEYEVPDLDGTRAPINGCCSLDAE
- EXPERIMENT: IMAP FP PDE selectivity panel, human PDE2A1
- Assay type: biochemical
- CONDITIONS_USED: Human PDE2, Lab A; read-out: Human PDE2 Ki (nM) - Lab A
- Protocol: Selectivity for PDE2, as compared to other PDE families, was assessed using the IMAP® technology. Human PDE 10A2 enzyme was prepared from cytosolic fractions of transiently transfected HEK cells. […] Assays for PDE 1 through 11 were performed in parallel at room temperature in 384-well microtiter plates with an incubation volume of 20.2 μL. […] The intrinsic PDE2 inhibitory activity of a compound which may be used in accordance with the present invention may be determined by these assays.
QUANTITY_MEASURED: Ki (nM)

C[C@@H](NC(=O)c1cc(=O)[nH]c(C2CC2)n1)c1ccc(OC(F)(F)F)cc1F : 16
Cc1ccccc1-c1nc(C(=O)N[C@H](C)c2ccc(C(F)(F)F)cc2)cc(=O)[nH]1 : 110
Cc1nc(C(=O)NC2(c3ccc(SC(F)(F)F)c(F)c3)CCC2)cc(=O)[nH]1 : 184
C[C@@H](NC(=O)c1cc(=O)[nH]c(C2CC2)n1)c1ccc(C(F)(F)F)cc1 : 16
O=C(N[C@@H](c1ccc(SC(F)(F)F)cc1)C1CC1)c1cc(=O)[nH]c(C2CC2)n1 : 2.4
Cc1nc(C(=O)N[C@H](C)c2ccc3ccccc3c2)cc(=O)[nH]1 : 67

a = Cc1nc(C(=O)NC(C)c2ccc(C(F)(F)F)cn2)cc(=O)[nH]1 (centres unmarked)
b = COCc1nc(C(=O)N[C@H](C)c2ccc(C(C)C)cc2)cc(=O)[nH]1
[ask] Quick one: lower Ki, a or b ? Please respond with the label that marks your chosen entry.
[reply] b
(b: 38 nM, a: 917 nM)

----------
- TGT: Rhesus PDE2A3 (Macaca mulatta)
- EXPERIMENT: PDE2 fluorescence polarization (IMAP FP) inhibition assay, rhesus enzyme
- Assay type: biochemical, rhesus macaque
- CONDITIONS_USED: Rhesus PDE2, Lab B; read-out: Rhesus PDE2 Ki (nM) - Lab B
QUANTITY_MEASURED: Ki (nM)

Some compounds with recorded Ki:
CC[C@@H](NC(=O)c1cc(=O)[nH]c(C2CC2)n1)c1ccc(C(F)(F)F)c(F)c1 [Example 254] : 23
Cc1nc(C(=O)N[C@@H](c2ccc(S(F)(F)(F)(F)F)cc2)C2CC2)cc(=O)[nH]1 [Example 405] : 17
Cc1nc(C(=O)N[C@@H](c2ccc(CC(F)(F)F)cc2)C(C)(C)C)cc(=O)[nH]1 [Example 61] : 10

1 = COc1ccc(C(C)(C)c2nc(C(=O)N[C@@H](c3ccc(C(F)(F)F)c(F)c3)C(C)(C)C)cc(=O)[nH]2)cc1 [Example 489]
2 = C[C@H](NC(=O)c1cc(=O)[nH]c(-c2ccccc2)n1)c1ccc([N+](=O)[O-])cc1 [Example 458]
3 = C[C@@H](NC(=O)c1cc(=O)[nH]c(-c2ccccc2)n1)c1ccc(Cl)cc1 [Example 418]
4 = O=C(NC1(c2ccccc2OC(F)(F)F)CCC1)c1cc(=O)[nH]c(-c2ccccc2)n1 [Example 411]
5 = O=C(N[C@@H](c1ccc(S(F)(F)(F)(F)F)cc1)C1CC1)c1cc(=O)[nH]c(-c2ncccn2)n1 [Example 412]
[ask] Falling order of Ki, please. # list labels per requested ordering
[reply] 2, 4, 1, 3, 5

----------
- TGT: human PDE2A1 (Homo sapiens (Human), UniProt O00408)
- EXPERIMENT: IMAP FP PDE selectivity panel, human PDE2A1
- Assay type: biochemical
- CONDITIONS_USED: Human PDE2, Lab A; read-out: Human PDE2 Ki (nM) - Lab A
QUANTITY_MEASURED: Ki (nM)

Cc1nc(C(=O)N[C@H](C)c2ccc(SC(F)(F)F)cc2)cc(=O)[nH]1 : 5.8

I = COC(=O)C(NC(=O)c1cc(=O)[nH]c(C)n1)c1ccc(C(F)(F)F)cc1 (racemic)
II = CC[C@@H](NC(=O)c1cc(=O)[nH]c(C2CC2)n1)c1ccc(OC(F)(F)F)cc1
III = Cc1nc(C(=O)N[C@H](C)c2ccc(S(F)(F)(F)(F)F)cc2)cc(=O)[nH]1
IV = CC[C@@H](NC(=O)c1cc(=O)[nH]c(-c2ccccc2)n1)c1ccc(OC(F)(F)F)c(F)c1
V = Cc1nc(C(=O)N[C@H](C)c2ccc(C(F)(F)F)c(C)c2)cc(=O)[nH]1
[ask] Rank descending by Ki. Show the ranking through the labels, in the order asked for.
[reply] I, V, III, II, IV

A = O=C(NC1(c2ccc(OC(F)(F)F)cc2)CC1)c1cc(=O)[nH]c(-c2ccccc2)n1
B = O=C(N[C@@H](c1ccc(OC(F)(F)F)cc1)C1CC1)c1cc(=O)[nH]c(C2CC2)n1
[ask] Sort A and B by Ki descending and give the first. Field: selected label. Fill in the label of the entry you choose.
[reply] A
(A: 5.6 nM, B: 2.5 nM)

----------
- TGT: UniProt B3VTJ2
- EXPERIMENT: PDE2 fluorescence polarization (IMAP FP) inhibition assay, rhesus enzyme
- Assay type: biochemical, rhesus macaque
- CONDITIONS_USED: Rhesus PDE2, Lab A; read-out: Rhesus PDE2 Ki (nM) - Lab A
QUANTITY_MEASURED: Ki (nM)

COc1ccc2cc(C(C)NC(=O)c3cc(=O)[nH]c(C)n3)ccc2c1 (single isomer, unassigned) [Example 314] : 4740

A = O=C(c1cc(=O)[nH]c(-c2ccccc2)n1)N1CCCCC1c1ccc(C(F)(F)F)cc1 (stereo not shown)
B = C[C@@H](NC(=O)c1cc(=O)[nH]c(-c2ccccc2)n1)c1ccc(C(F)(F)F)cc1
[ask] Of the pair A and B , name the member with the lesser recorded Ki. Response format: the label of the selected entry.
[reply] B
(B: 6.7 nM, A: 2350 nM)
